Ref: patent US5064430A

Experiment: Temperature profiles of turbidity formation / coacervation (light scattering at 300 nm)
Assay type: physicochemical
Settings: in water, 40 mg/ml (high concentration limit)
Ends that are not written are not given here.
Parameter: midpoint of the temperature profile of turbidity formation / coacervation. Scope: all listed entries.

[Q] Fill blank: measured midpoint of the temperature profile of turbidity formation / coacervation of the substance H-(Gly-Gly-Val-Pro)n -OH (H-GGVP-OH; also: repeated n times (polymer)) [PTP] is ____.
[A] 49 °C

[Q] Then this substance: (Val-Pro-Gly-Val-Gly)n (VPGVG; also: polymer of repeating pentamer, (VPGVG)n) [PPP, reference compound]
[A] 25 °C

Could you now look at the following substance, please?
[Q] Fill blank: measured midpoint of the temperature profile of turbidity formation / coacervation of the substance H-(Gly-Val-Gly-Ile-Pro)n -OH (H-GVGIP-OH; also: polymer, (GVGIP) repeated n times) [Ile^1 -PPP] is ____.
[A] 9 °C
